Biological target: Quinolone signal response protein (Pseudomonas aeruginosa, UniProt A0A072ZMX8)
Sequence (A0A072ZMX8 whole entry): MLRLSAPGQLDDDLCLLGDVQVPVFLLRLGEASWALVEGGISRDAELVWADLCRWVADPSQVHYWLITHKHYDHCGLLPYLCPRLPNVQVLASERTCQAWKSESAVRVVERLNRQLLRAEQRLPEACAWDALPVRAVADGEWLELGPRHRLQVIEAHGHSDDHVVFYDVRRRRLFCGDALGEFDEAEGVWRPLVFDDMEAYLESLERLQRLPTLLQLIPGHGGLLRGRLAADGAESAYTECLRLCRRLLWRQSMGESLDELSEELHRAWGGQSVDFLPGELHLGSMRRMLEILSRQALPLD
Assay: Isothermal Titration Calorimetry (ITC)
Conditions: 14 °C
Method: ITC titrations were performed using an ITC200 instrument (Microcal Inc.,Malvern). DMSO stock solutions (20 mM) of fragments were diluted 1:20 (v/v) into ITC titration buffer (50 mM tricine, 2 mM MnCl2, pH = 8.5) to give a 1 mM final compound concentration at 5% (v/v) DMSO. Aliquots of the same buffer batch (stored at […]) were used as for protein storage to avoid a buffer mismatch. H6PqsE was diluted in the same buffer to 100 μM, and DMSO concentration was adjusted to 5% (v/v). […]
Would you kindly list pKd for each of these molecules?
One number for each entry, as −log10 of the molar value.

List the reported pKd of each molecule below.
1. O=C(O)c1ccccc1-c1cccnc1
2. Cc1ccsc1C(=O)O

Out:
[6.05, 4.71]
